Each record here notes measured P.F.U. Count.
- Test system: Herpes simplex II virus
- test protocol: Back titration plaque assay: PFU counts at stated amounts of compound under test and arginine
- Type: cell-based, Herpes simplex II virus (BSC cells)
- cond: compound 10 μg/ml; arginine 2.5 μg/ml
- Protocol: The following experiments were conducted by back titration: Herpes simplex II virus from laboratory stocks was used. BSC cells were grown to confluence in Eagles medium with 15% fetal calf serum, 150 units per milliliter of penicillin and 100 micrograms per milliliter of streptomycin. […] The cells were then incubated at 37° C. until the plaques were easily counted, usually 40 t 72 hours. the cells were then washed two times with PBS and then fixed with 10% H2CO and a 2% sodium acetate. […]
Reply: number alone, nothing else.

Guide cases for P.F.U. Count, answers given:
| compound | target or test system | P.F.U. Count |
| --- | --- | --- |
| CC(N)CCCCC(N)C(=O)O (centres unmarked) [drawing 18] | Herpes simplex II virus | 0 |
| CC(N)CCCC(N)C(=O)O (centres unmarked) [6-Methyl lysine] | Herpes simplex II virus | 0 |
| CC(CCN)CC(N)C(=O)O (centres unmarked) [4-Methyl lysine] | Herpes simplex II virus | 110 |

Now consider a different compound.
According to the records, this compound NCCCCCC(N)C(=O)O (centres unmarked) [drawing 17] displays P.F.U. Count of 0

====

Each record here notes measured P.F.U. Count.
- Test system: Herpes simplex II virus
- test protocol: Back titration plaque assay: PFU counts at stated amounts of compound under test and arginine
- Type: cell-based, Herpes simplex II virus (BSC cells)
- cond: compound 300 μg/ml; arginine 0 μg/ml
Reply: number alone, nothing else.

Guide cases for P.F.U. Count, answers given:
| compound | target or test system | P.F.U. Count |
| --- | --- | --- |
| CC(CN)CC[C@H](N)C(=O)O (some centres unmarked) [5-Methyl lysine] | Herpes simplex II virus | 0 |
| CC(N)CCCCC(N)C(=O)O (centres unmarked) [drawing 18] | Herpes simplex II virus | 0 |
| CC(CCN)CC(N)C(=O)O (centres unmarked) [4-Methyl lysine] | Herpes simplex II virus | 0 |
| NCCCCCC(N)C(=O)O (centres unmarked) [drawing 17] | Herpes simplex II virus | 0 |

Now consider a different compound.
According to the records, this compound CC(N)CCCC(N)C(=O)O (centres unmarked) [6-Methyl lysine] displays P.F.U. Count of 0

====

- Tested on: Herpes simplex II virus
- test protocol: Back titration plaque assay: PFU counts at stated amounts of compound under test and arginine
- Assay type: cell-based, Herpes simplex II virus (BSC cells)
- cond: compound 200 μg/ml; arginine 20 μg/ml
measured property: P.F.U. Count
Reply: number alone, nothing else.

| compound | reported value |
| --- | --- |
| NCCCCCC(N)C(=O)O (centres unmarked) [drawing 17] | 68 |

Now consider a different compound.
According to the records, this compound CC(N)CCCCC(N)C(=O)O (centres unmarked) [drawing 18] displays P.F.U. Count of 760

====

- Test system: Herpes simplex II virus
- test protocol: Back titration plaque assay: PFU counts at stated amounts of compound under test and arginine
- Assay type: cell-based, Herpes simplex II virus (BSC cells)
- cond: compound 10 μg/ml; arginine 10 μg/ml
Each record here notes measured P.F.U. Count.

Guide cases for P.F.U. Count, answers given:
| compound | P.F.U. Count |
| --- | --- |
| CC(CCN)CC(N)C(=O)O (stereo not drawn) | 9.6 × 10^4 |
| CC(N)CCCC(N)C(=O)O (stereo not drawn) | 4.0 × 10^3 |

According to the records, this compound CC(CN)CC[C@H](N)C(=O)O (stereo partly drawn) displays P.F.U. Count of 7.9 × 10^4
